- measurementTarget: T1, human IL-12 (human, UniProt P29460 23-328; P29459 23-219)
- T1 construct: also called Interleukin-12
- T1 sequence 1: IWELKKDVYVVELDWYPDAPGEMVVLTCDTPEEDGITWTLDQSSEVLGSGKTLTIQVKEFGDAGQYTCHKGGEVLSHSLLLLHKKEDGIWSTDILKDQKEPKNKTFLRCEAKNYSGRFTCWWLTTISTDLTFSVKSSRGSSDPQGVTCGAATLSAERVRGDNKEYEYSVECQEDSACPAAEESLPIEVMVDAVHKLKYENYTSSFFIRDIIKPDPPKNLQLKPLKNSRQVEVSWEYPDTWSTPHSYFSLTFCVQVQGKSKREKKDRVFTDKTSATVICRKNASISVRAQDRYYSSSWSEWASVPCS
- T1 sequence 2: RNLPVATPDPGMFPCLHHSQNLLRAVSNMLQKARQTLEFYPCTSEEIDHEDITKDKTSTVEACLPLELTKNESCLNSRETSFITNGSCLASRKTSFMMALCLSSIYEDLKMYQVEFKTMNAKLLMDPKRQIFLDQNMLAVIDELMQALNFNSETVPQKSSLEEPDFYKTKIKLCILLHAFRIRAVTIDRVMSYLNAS
- methodNotes: SPR (Biacore T200), 37 C, pH 7.4; captured antibody, IL-12 analyte
Entries annotated with measured Kd
Report only the number, with the unit nM understood.

Here's what some known entries look like.
Anti-IL-12 antibody Ab1 variant Y91L VH/- (antibody, name in Kabat numbering, V domains shown, Ab1 with VH/VL interface substitutions; Kabat numbering) VH: QVQLVQSGAEVKKPGSSVKVSCKASGGTFSDYYLHWVRQAPGQGLEWMGWIDPENGDTEYAPKFQGRVTITADESTSTAYMELSSLRSEDTAVYLCARNKELRYFDVWGQGTLVTVSS VL: DIVMTQSPLSLPVTPGEPASISCRASQSISINLHWYQQKPGQAPRLLIYFASQSISGVPSRFSGSGSGTDFTLTISSLQPEDFATYYCQQSNSFPLTFGQGTKVEIKR: 1.21
Anti-IL-12 antibody Ab1 variant F100aI VH/P44A, Y49A VL (antibody, name in Kabat numbering, V domains shown, Ab1 with VH/VL interface substitutions; Kabat numbering) VH: QVQLVQSGAEVKKPGSSVKVSCKASGGTFSDYYLHWVRQAPGQGLEWMGWIDPENGDTEYAPKFQGRVTITADESTSTAYMELSSLRSEDTAVYYCARNKELRYIDVWGQGTLVTVSS VL: DIVMTQSPLSLPVTPGEPASISCRASQSISINLHWYQQKPGQAARLLIAFASQSISGVPSRFSGSGSGTDFTLTISSLQPEDFATYYCQQSNSFPLTFGQGTKVEIKR: 1.25

Q) Please give the documented Kd of Anti-IL-12 antibody Ab1 variant V37S VH/L46Q, Y49A, Y87M VL (antibody, name in Kabat numbering, V domains shown, Ab1 with VH/VL interface substitutions; Kabat numbering) VH: QVQLVQSGAEVKKPGSSVKVSCKASGGTFSDYYLHWSRQAPGQGLEWMGWIDPENGDTEYAPKFQGRVTITADESTSTAYMELSSLRSEDTAVYYCARNKELRYFDVWGQGTLVTVSS VL: DIVMTQSPLSLPVTPGEPASISCRASQSISINLHWYQQKPGQAPRQLIAFASQSISGVPSRFSGSGSGTDFTLTISSLQPEDFATYMCQQSNSFPLTFGQGTKVEIKR
A) 3.87

Values from patent US20240343771A1
